Assay Method Text: Crossover study with pharmacokinetic analysis, single oral dose in healthy male subjects
Type: in vivo, human
Experimental Context: male, human, plasma, po, 20 mg, 2 h timepoint; 20 mg single oral dose; full PK profile; read-out: mean SD plasma concentration
Measured Quantity: concentration at 2 h (ng/mL)
Answers are plain numbers, in ng/mL.

(Q) For "Cc1cc(N2CCc3cc(F)ccc3C2)cc(C)c1NC(=O)CC(C)(C)C" , what is its reported concentration at 2 h?
(A) 15.9

* * *

Assay Method Text: Crossover study with pharmacokinetic analysis, single oral dose in healthy male subjects
Assay type: in vivo, human
Experimental Context: male, human, plasma, oral, 20 mg, subjects who received placebo in Period 2; read-out: Compound A levels after washout between periods, mean
Measured Quantity: concentration at 6 days (ng/mL)
Numbers only, in ng/mL.

(Q) For Cc1cc(N2CCc3cc(F)ccc3C2)cc(C)c1NC(=O)CC(C)(C)C [Compound A] , what is its reported concentration at 6 days?
(A) 3.1

* * *

Assay Method Text: Crossover study with pharmacokinetic analysis, single oral dose in healthy male subjects
Type: in vivo, human
Experimental Context: male, human, plasma, oral, 20 mg, subjects who received placebo in Period 2; read-out: Compound A levels after washout between periods, range
Measured Quantity: concentration at 6 days

(Q) For Cc1cc(N2CCc3cc(F)ccc3C2)cc(C)c1NC(=O)CC(C)(C)C [Compound A] , what is its reported concentration at 6 days?
(A) 1.3 to 6.8 ng/mL

* * *

Assay Method Text: Crossover study with pharmacokinetic analysis, single oral dose in healthy male subjects
Format: in vivo, human
Experimental Context: male, human, plasma, po, 20 mg, 6 h timepoint; 20 mg single oral dose; full PK profile; read-out: mean SD plasma concentration
Measured Quantity: concentration at 6 h (ng/mL)
Answers are plain numbers, in ng/mL.

(Q) For "Cc1cc(N2CCc3cc(F)ccc3C2)cc(C)c1NC(=O)CC(C)(C)C" , what is its reported concentration at 6 h?
(A) 42.1

* * *

Assay Method Text: Crossover study with pharmacokinetic analysis, single oral dose in healthy male subjects
Type: in vivo, human
Experimental Context: male, human, plasma; 20 mg single oral dose, fed; Full PK Profile Data Set (N = 16); read-out: MRTinf (h), Range
Measured Quantity: MRT inf

(Q) For Cc1cc(N2CCc3cc(F)ccc3C2)cc(C)c1NC(=O)CC(C)(C)C [Compound A] , what is its reported MRT inf?
(A) 33 to 304 h

* * *

Assay Method Text: Crossover study with pharmacokinetic analysis, single oral dose in healthy male subjects
Type: in vivo, human
Experimental Context: male, human, plasma; 20 mg single oral dose, fed; Full PK Profile Data Set (N = 16); read-out: AUClast (ng*h/mL), Range
Measured Quantity: AUC(0-t)

(Q) For "Cc1cc(N2CCc3cc(F)ccc3C2)cc(C)c1NC(=O)CC(C)(C)C" , what is its reported AUC(0-t)?
(A) 1580 to 4400 ng·h/mL

* * *

Assay Method Text: Crossover study with pharmacokinetic analysis, single oral dose in healthy male subjects
Format: in vivo, human
Experimental Context: male, human, plasma; 20 mg single oral dose, fed; Full PK Profile Data Set (N = 16); read-out: CL/F normalized (mL/h/kg), Range
Measured Quantity: CL/F

(Q) For Cc1cc(N2CCc3cc(F)ccc3C2)cc(C)c1NC(=O)CC(C)(C)C [Compound A] , what is its reported CL/F?
(A) 40.3 to 136 mL/h/kg

The measured values listed here are drawn from patent US20240342156A1.
